Value source: PubChem BioAssay AID1117319

study target: Virion infectivity factor (Human immunodeficiency virus type 1 group M subtype B (isolate BH10)) + Virion infectivity factor (Human immunodeficiency virus type 1 group M subtype B (isolate BRU/LAI)) + Virion infectivity factor (Human immunodeficiency virus type 1 group M subtype B (isolate PCV12)) + Virion infectivity factor (Human immunodeficiency virus type 1 group M subtype B (isolate HXB2)) + DNA dC->dU-editing enzyme APOBEC-3G (Homo sapiens) (UniProt P69720+P69721+P69722+P69723+Q9HC16)
procedure text: HIV-1 Vif–A3G interaction blockers – biochemical, TR-FRET, GST-Vif 1-94, biotin-A3G peptide, dose response retest, primary screen (AID 1117319);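 also: Vif residues 1-94 fused to GST binding biotinylated APOBEC3G peptide 110-148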
condition set: TR-FRET GST-Vif / biotin-A3G peptide binding
pIC50: −log10 of the molar value. Inconclusive results are not listed.
Given measured pIC50, output MET if it is greater than or equal to 5 and NOT MET if not.

| compound | category label |
| --- | --- |
| CCOC(=O)C1CCCN(C(=O)c2ccc(CNc3c(N4CCC(C)CC4)c(=O)c3=O)cc2)C1 (configuration not stated) | NOT MET |
| CCOc1ccc(NC(=O)CCS(=O)(=O)c2ccc(Br)cc2)cc1 | NOT MET |
| CCOc1cccc(CNc2ccc(O)cc2)c1OCc1ccccc1Cl | MET |
| CC1CCCN(Cc2c(O)ccc3c2O/C(=C\c2ccco2)C3=O)C1 (configuration not stated) | MET |
| O=C(/C=C/c1ccco1)NC(=S)Nc1ccc(C(=O)O)cc1 | NOT MET |

As a next step, examine the compound that follows.
# bool: pIC50 of CN(C)c1ccc(NC(=O)CSc2nc3ccccc3c(=O)n2C2CCCCC2)cc1 >= 5 NOT MET
